Every entry's value here was drawn from patent US20190105344A1.

# Assay protocol: Iodination of arachidonic acid by molecular iodine with additional iodate (thiosulfate titration, Example 3)
# Type: physicochemical
# Test conditions: one mg arachidonic acid, Sample 2 vs Sample 1; unit of the source corrected
# Method: A stock solution of 10 mg/ml arachidonic acid in ethanol was prepared. […] A control vial was prepared that had no arachidonic acid. An iodate/iodide solution was prepared separately by adding NaIO3 (Sigma-Aldrich, St. Louis, Mo.; part number […]) and NaI (Sigma-Aldrich, St.

>  <Molecule smiles>
CCCCC/C=C\C/C=C\C/C=C\C/C=C\CCCC(=O)O

>  <molecular iodine reacted with / µmol>
1

$$$$
